- target of assay: MMP-14 (Homo sapiens, UniProt P50281)
- protocol description: Selection and phage ELISA screening of anti-MMP-14 Fabs
- Type: binding
- condition description: Fab from FAB310 phage display library
measured parameter: bind to human MMP-14

Field: example entries. Status: answers known.
INSERT INTO results (molecule, measured_parameter, endpoint_value) VALUES
  ('M0039-D02: Fab that binds human MMP-14; DNA LV SEQ ID NO: 70, HV SEQ ID NO: 71 (protein, Synthetically generated oligonucleotide) chain 1: QDIQMTQSPSSLSASVGDRVTITCRASQSISSYLNWYQQKPGKAPKLLIYDASNLETGVPSRFSGSGSGTDFTFTISSLQPEDIATYYCQQFDDLPLTFAGGTKVELKRT chain 2: EVQLLESGGGLVQPGGSLRLSCAASGFTFSLYVMIWVRQAPGKGLEWVSGIYSSGGDTYYADSVKGRFTISRDNSKNTLYLQMNSLRAEDTAVYYCARGQQLGGGAFDIWGQGTMVTVSS', 'bind to human MMP-14', 'bind to human MMP-14'),
  ('M0039-G05: Fab that binds human MMP-14; DNA LV SEQ ID NO: 74, HV SEQ ID NO: 75 (antibody, V domains shown, Synthetically generated oligonucleotide) VL: QDIQMTQSPSFLSASIGDRVTITCRASQGINTFLAWYQQKPGIAPKLLIYAASTLQSGVPSRFSGSGSGTEFTLTISSLQPEDFATYYCQQLNGYRSFGQGTRLEMK VH: EVQLLESGGGLVQPGGSLRLSCAASGFTFSNYEMGWVRQAPGKGLEWVSWIYSSGGYTSYADSVKGRFTISRDNSKNTLYLQMNSLRAEDTATYYCARDPYYYDSSGYYYYYYYYMDVWGKGTTVTVSS', 'bind to human MMP-14', 'bind to human MMP-14'),
  ('M0041-E11: Fab that binds human MMP-14; DNA LV SEQ ID NO: 116, HV SEQ ID NO: 117 (protein, Synthetically generated oligonucleotide) chain 1: QDIQMTQSPSSLSAFVGDRVIITCRASQDISVYVNWYQQSSGKAPKLLIYGASSLQSGVPSRFSGSGSGTDFTLTISSLQPEDFASYFCQQSYNLPFTFGGGTNVQIK chain 2: EVQLLESGGGLVQPGGSLRLSCAASGFTFSQYNMQWVRQAPGKGLEWVSGIVPSGGWTPYADSVKGRFTISRDNSKNTLYLQMNSLRAEDTAVYYCARGVRYGLDYWGQGTLVTVSS', 'bind to human MMP-14', 'bind to human MMP-14'),
  ('M0037-B10: Fab that binds human MMP-14; DNA LV SEQ ID NO: 38, HV SEQ ID NO: 39 (antibody, V domains shown) VH: EVQLLESGGGLVQPGGSLRLSCAASGFTFSVYYMGWVRQAPGKGLEWVSYIGSSGGWTEYADSVKGRFTISRDNSKNTLYLQMNSLRAEDTAVYYCARDLSAVAGLGGAFDIWGQGTMVTVSS VL: QDIQMTQSPSSLSASVGDRVAITCRASQSIDTYLNWYQQKPGKAPKLLIYAASKLEDGVPSRFSGSGTGTDFTLTIRSLQPEDFASYFCQQSYSSPGITFGPGTKVEIK', 'bind to human MMP-14', 'bind to human MMP-14'),
  ('M0044-D08: Fab that binds human MMP-14; DNA LV SEQ ID NO: 138, HV SEQ ID NO: 139 (antibody, V domains shown, Synthetically generated oligonucleotide) VL: QYELTQPLSVSVALGQTASISCWGHNIRIKNVHWYQQKPGQAPVVVMYIPERFSGSTSGNTATLTISGAQAGDEADYYCQVWDSSTVVFGGGTKLTVL VH: EVQLLESGGGLVQPGGSLRLSCAASGFTFSKYPMSWVRQAPGKGLEWVSSIWPSGGHTFYADSVKGRFTISRDNSKNTLYLQMNSLRAEDTAVYYCAKNPGLRYAFDNWGRGTMVTVSS', 'bind to human MMP-14', 'bind to human MMP-14');

(Q) Please supply the value of reported bind to human MMP-14 for the item M0041-C11: Fab that binds human MMP-14; DNA LV SEQ ID NO: 110, HV SEQ ID NO: 111 (antibody, V domains shown, Synthetically generated oligonucleotide) VL: QDIQMTQSPSSLSASVGDRVTITCRASQRIGSYLNWYQQNSGKAPRLLIYGASNLESGVPSRFSGRGSGTDFTLTISSLQPEDFATYYCQQSNSTPHTFGQGTKVEIK VH: EVQLLESGGGLVQPGGSLRLSCAASGFTFSQYPMSWVRQAPGKGLEWVSSIGPGGWTWYADSVKGRFTISRDNSKNTLYLQMNSLRAEDTAVYYCARTATRIFGVVIMGRAFDIWGQGTMVTVSS
(A) bind to human MMP-14

(Q) Please supply the value of reported bind to human MMP-14 for the item M0040-D08: Fab that binds human MMP-14; DNA LV SEQ ID NO: 94, HV SEQ ID NO: 95 (antibody, V domains shown, Synthetically generated oligonucleotide) VL: QSALTQSPSASASLGSSVKLTCTLASEHSGYIIAWHQQQPGKAPRFLMKLDGTGNFNKGSGVPDRFSGYSSGADRYLTISNLQSEDEADYYCETWDSTTLWVFGGGTKLTVL VH: EVQLLESGGGLVQPGGSLRLSCAASGFTFSHYGMTWVRQAPGKGLEWVSSIVPSGGYTAYADSVKGRFTISRDNSKNTLYLQMNSLRAEDTAVYYCTTGLSSSGTRWFDAWGQGTLVTVSS
(A) bind to human MMP-14

(Q) Please supply the value of reported bind to human MMP-14 for the item M0042-B07: Fab that binds human MMP-14; DNA LV SEQ ID NO: 122, HV SEQ ID NO: 123 (antibody, V domains shown, Synthetically generated oligonucleotide) VL: QDIQMTQSPLSLPVTPGEPASISCRSSQSLLHSNGYNYLDWYVQKPGQSPQLLIYLGSGRASGVPDRFSGSGSGTDFTLKINRVEAEDVGVYYCMQALQTPWTFGQGTKVEIK VH: EVQLLESGGGLVQPGGSLRLSCAASGFTFSPYSMFWVRQAPGKGLEWVSVIYPSGGGTIYADSVKGRFTISRDNSKNTLYLQMNSLRAEDTAVYYCARSRESCDADTCYQYFQEWGQGTLVTVSS
(A) bind to human MMP-14
